Parameter: AC1.4. Scope: all listed entries.
system: Bovine cardiac myofibrils; experiment: In vitro model of dose-dependent myofibril ATPase modulation (AC1.4, pyruvate kinase/lactate dehydrogenase-coupled ATPase assay at pCa25); type: biochemical; details: concentration at which ATPase activity was 1.4-fold higher than the bottom of the dose curve, mean of a minimum of two independent tests
# value in µM; strip the unit string

Sample answers from the record:
structure_string=CC(C)[C@H](NC(=O)[C@H]1CCCN1C(=O)[C@H]1CCCN(S(=O)(=O)N2CC(C#N)C2)C1)c1ccc(C(F)(F)F)cc1F tested_target="Bovine cardiac myofibrils" property_measured=AC1.4 reported_result=0.5053
structure_string=C[C@@H](NC(=O)[C@H]1CCCN1C(=O)c1cccc(S(=O)(=O)N2CC3(CC3)C2)c1)c1ccc(C(F)(F)F)cc1 tested_target="Bovine cardiac myofibrils" property_measured=AC1.4 reported_result=1.66
structure_string=CS(=O)(=O)c1cccc(C(=O)N2C[C@H](C(F)F)C[C@@H]2C(=O)N[C@@H](c2ccc(C(F)(F)F)cc2F)C2CC2)c1 tested_target="Bovine cardiac myofibrils" property_measured=AC1.4 reported_result=1.0425
structure_string=COc1ccc(F)cc1CNC(=O)[C@H]1CCCN1C(=O)[C@H]1CCCN(S(=O)(=O)N2CC(C#N)C2)C1 tested_target="Bovine cardiac myofibrils" property_measured=AC1.4 reported_result=5.588
structure_string=CCc1ccnc(C(=O)N2[C@@H](C(=O)N[C@@H](c3cc(F)c(C(F)(F)F)cc3F)C3CC3)C[C@H]3C[C@H]32)c1 tested_target="Bovine cardiac myofibrils" property_measured=AC1.4 reported_result=4.1595

[in] Fill in reported AC1.4 for this entry: CON(C)S(=O)(=O)c1cccc(C(=O)N2CCC[C@@H]2C(=O)NCc2ccc(C(F)(F)F)cc2)c1
[out] 4.4365

[in] Indicate its recorded AC1.4; the compound in question is N#CC1CN(S(=O)(=O)N2CCC[C@H](C(=O)N3CCC[C@@H]3C(=O)NCc3ccc(CF)cc3)C2)C1
[out] 1.511

[in] Look up and state reported AC1.4 for C[C@@H](NC(=O)[C@H]1CCCN1C(=O)[C@H]1CCCN(S(=O)(=O)N2CC(C#N)C2)C1)c1ccc(C(F)F)cc1
[out] 0.5915
